Assay: Rat PK test (IV and PO); further: test concentration or dose not given here
Conditions: male, SD, rat, plasma
Where a name gives a salt, the structure may show the parent alone.
measure.name: half-life (h)

>  <compound>
COc1ccc(-c2c(-c3ccc(C#N)c(F)c3)nc(N3CCC(N)CC3)n(C)c2=O)cc1F [(CC90011), reference compound]

>  <half-life, h>
2.32

$$$$

[a] COc1ccc(-c2cnc(N3CCC(N)CC3)c(C#N)c2-c2ccc(C#N)c(F)c2)cc1O [Example 66, hydrochloride]
[b] COc1ccc(-c2c(OC)cc(N3CCC(N)CC3)nc2-c2ccc(C#N)c(F)c2)cc1O [Example 89]
Inquiry: Please let me know which one, a or b , has a lower measured half-life value. Answer with the label corresponding to your selection.
Reply text: a
(a: 1.96 h, b: 6.26 h)

[I] O=C(NC1CCOCC1)c1cc(CN[C@@H]2C[C@H]2c2ccc(F)cc2)nc(-c2ccc(N3CCOCC3)cc2)n1 [Example 246, hydrochloride]
[II] Cc1noc2cc(-c3c(-c4ccc(C#N)c(F)c4)nc(N4CCC(N)CC4)n4ccnc34)c(F)cc12 [Example 125]
Inquiry: Please let me know which one, I or II , has a lower measured half-life value. Answer with the label corresponding to your selection.
Reply text: II
(II: 2.58 h, I: 4.96 h)

----------
Target: LSD1 (Homo sapiens (Human))
Assay: LSD1 enzyme activity detection (HTRF)
Format: biochemical
Details: HTRF, H3K4me1 substrate; read-out: Inhibition of enzymatic activity of LSD1 IC50
pIC50: −log10 of the molar value. Counter-ions that a name gives are not always drawn.
measure.name: pIC50

Below are worked cases with known answers.
>  <compound>
COc1ccc(-c2c(OCC3CCC3)cc(N3CCC(N)CC3)nc2-c2ccc(C#N)c(F)c2)cc1O [Example 107, hydrochloride]

>  <pIC50>
8.60

$$$$
>  <compound>
N#Cc1ccc(-c2nc(N3CCC(N)CC3)n3ccnc3c2-c2ccc(Cl)c(O)c2)cc1F [Example 142, formate]

>  <pIC50>
9.70

$$$$
>  <compound>
CN(CCCN)c1nc(-c2ccc(C#N)c(F)c2)c(-c2ccc(OC(F)(F)F)c(O)c2)c2nccn12

>  <pIC50>
8.28

$$$$

[a] CNC1CCCN(c2cc(O)c(-c3ccc(OC)c(F)c3)c(-c3ccc(C#N)c(F)c3)n2)C1 (stereo not shown)
[b] CC(C)(O)Cc1ccc(-c2c(-c3ccc(C#N)c(F)c3)nc(N3CCC(N)CC3)n3ccnc23)c(F)c1 [Example 132, hydrochloride]
Inquiry: Task for the reader: decide whether a or b has the larger pIC50. Answer with the label corresponding to your selection.
Reply text: b

----------
Biological target: LSD1 (Homo sapiens (Human))
Experiment: LSD1 enzyme activity detection (HTRF)
Assay type: biochemical
Conditions: HTRF, H3K4me1 substrate; read-out: Inhibition of enzymatic activity of LSD1 IC50
Where a name gives a salt, the structure may show the parent alone.
measure.name: IC50 (nM)

>  <compound>
Cc1ccc(-c2c(O)cc(N(C)CCCN)nc2-c2ccc(C#N)c(F)c2)cc1O [Example 63, hydrochloride]

>  <measure.name>
IC50

>  <unit.of.measurement>
nM

>  <assay.result>
5.1

$$$$

[I] N#Cc1ccc(-c2nc(N3CCC(N)CC3)cc(O)c2-c2ccc3c(c2)OC(F)(F)O3)cc1F [Example 30, hydrochloride]
[II] COc1ccc(-c2c(O)cc(N3CCC(N)CC3)nc2-c2ccc(C#N)c(F)c2)c(F)c1 [Example 36, hydrochloride]
Inquiry: Please let me know which one, I or II , has a lower measured IC50 value. Answer with the label corresponding to your selection.
Reply text: II
(II: 35.2 nM, I: 213 nM)

[I] COc1ccc(-c2cnc(N3CCC(N)CC3)c(C#N)c2-c2ccc(C#N)c(F)c2)cc1O [Example 66, hydrochloride]
[II] Cc1noc2cc(-c3c(-c4ccc(C#N)c(F)c4)nc(N4CCC(C)(N)CC4)n4ccnc34)c(F)cc12
[III] COc1ccc(-c2c(-c3ccc(C#N)c(F)c3)nc(N(C)CCCN)n3ccnc23)cc1O
Inquiry: Highest IC50 first, then in falling order down to the smallest. Dear reader, please state the labels in the requested order.
Reply text: II, III, I

[I] Cc1ccc(-c2c(-c3ccc(C#N)cc3)cc3c(N4CC(N)C4)nccn23)cc1 [Example 188, hydrochloride]
[II] COc1cc(N2CCC(N)CC2)nc(-c2ccc(C#N)c(F)c2)c1-c1cc2onc(C)c2cc1F
Inquiry: Task for the reader: decide whether I or II has the larger IC50. Answer with the label corresponding to your selection.
Reply text: I
(I: 35 nM, II: 7.48 nM)

----------
Target: LSD1 (Homo sapiens (Human))
Test: LSD1 enzyme activity detection (HTRF)
Assay type: biochemical
Details: HTRF, H3K4me1 substrate; read-out: Inhibition of enzymatic activity of LSD1 IC50
Where a name gives a salt, the structure may show the parent alone.
measure.name: IC50 (nM)

>  <molecule>
N#Cc1ccc(-c2cc(C(=O)N3C4CCC3CC(N)C4)sc2-c2ccccn2)cc1F (stereo not shown) [Example 201, Hydrochloride]

>  <IC50, nM>
26.8

$$$$

[I] CC1(N)CCN(c2nc(-c3ccc(C#N)c(F)c3)c(-c3ccc(OC(F)(F)F)c(O)c3)c3nccn23)CC1
[II] N#Cc1ccc(-c2nc(N3CCC(N)CC3)n3ccnc3c2-c2ccc(F)c(O)c2)cc1F
[III] COc1ccc(-c2c(OC(F)F)cc(N3CCC(N)CC3)nc2-c2ccc(C#N)c(F)c2)cc1O
Inquiry: Highest IC50 first, then in falling order down to the smallest. Dear reader, please state the labels in the requested order.
Reply text: I, III, II
(I: 23.5 nM, III: 1.2 nM, II: 0.07 nM)

----------
# IC50 per record follows
Target: LSD1 (Homo sapiens (Human))
Assay: LSD1 enzyme activity detection (HTRF)
Format: biochemical
Conditions: read-out: Inhibition of enzymatic activity of LSD1 IC50
Structures can show the parent of a compound that is named as a salt.
Express your answer in nM, writing the number without its unit.

Below are worked cases with known answers.
>  <compound>
Cc1ccc(-c2c(-c3ccc(C#N)cc3)cc3c(N4CCC(N)CC4)nncn23)cc1 [Example 196, hydrochloride]

>  <assay.result>
37.7

$$$$
>  <compound>
COc1ccc(-c2c(O)cc(N3CC4CNCC4C3)nc2-c2ccc(C#N)c(F)c2)cc1F (stereo not drawn) [Example 52, hydrochloride]

>  <assay.result>
100

$$$$
>  <compound>
CNC1CCCN(c2nc(OC)c(-c3ccc(OC)c(F)c3)c(-c3ccc(C#N)c(F)c3)n2)C1 (stereo not drawn) [Example 114, hydrochloride]

>  <assay.result>
67

$$$$
>  <compound>
CNC1CCCN(c2ccnn3c(-c4ccc(C)cc4)c(-c4ccc(C#N)cc4)cc23)C1 (stereo not drawn) [Example 197, hydrochloride]

>  <assay.result>
9.44

$$$$
>  <compound>
CCOc1cc(N2CCC(N)CC2)nc(-c2ccc(C#N)c(F)c2)c1-c1ccc(OC)c(O)c1

>  <assay.result>
0.6

$$$$

Could you now consider this next compound?
Inquiry: Annotate the compound COc1ccc(-c2c(-c3ccc(C#N)c(F)c3)nc(N3CCC(N)CC3)n3ccnc23)cc1F [Example 117, hydrochloride] with its measured IC50.
Reply text: 0.46

----------
Test: in vitro
Conditions: human, Caco-2
Structures can show the parent of a compound that is named as a salt.
# efflux ratio at 120 min per record follows
Please reply with the value in numeric form only.

>  <molecule>
COc1ccc(-c2c(-c3ccc(C#N)c(F)c3)nc(N3C4CCC3CC(N)C4)n3ccnc23)cc1F (centres unmarked)

>  <efflux ratio at 120 min>
2.56

$$$$

Could you now consider this next molecule?
Inquiry: Annotate the molecule Cc1noc2cc(-c3sc(C(=O)N4C5CCC4CC(N)C5)nc3-c3ccc(C#N)c(F)c3)c(F)cc12 (centres unmarked) [Example 220, hydrochloride] with its measured efflux ratio at 120 min.
Reply text: 2.7

----------
Target: CYP3A4 (Homo sapiens (Human))
Sequence (P08684 whole entry): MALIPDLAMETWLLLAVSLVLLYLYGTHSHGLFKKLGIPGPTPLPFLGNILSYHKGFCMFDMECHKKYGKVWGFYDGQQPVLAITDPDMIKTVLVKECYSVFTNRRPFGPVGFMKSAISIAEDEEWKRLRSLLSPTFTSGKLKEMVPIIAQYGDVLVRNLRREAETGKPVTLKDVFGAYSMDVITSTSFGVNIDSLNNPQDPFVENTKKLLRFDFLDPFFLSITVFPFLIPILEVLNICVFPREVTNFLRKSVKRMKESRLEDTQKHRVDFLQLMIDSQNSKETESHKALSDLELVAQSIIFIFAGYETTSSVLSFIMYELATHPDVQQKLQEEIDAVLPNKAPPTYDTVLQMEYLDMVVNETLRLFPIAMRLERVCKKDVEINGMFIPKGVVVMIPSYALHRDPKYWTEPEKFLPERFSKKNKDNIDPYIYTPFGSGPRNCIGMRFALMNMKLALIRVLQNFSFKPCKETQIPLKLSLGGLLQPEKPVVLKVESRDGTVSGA
Conditions: microsomes
measure.name: IC50 (µM)
Express your answer in µM, writing the number without its unit.

Inquiry: Annotate the molecule Cc1noc2cc(-c3c(-c4ccc(C#N)c(F)c4)nc(N4C5CCC4CC(N)C5)n4ccnc34)c(F)cc12 (stereo not shown) [Example 118] with its measured IC50.
Reply text: 8.68

----------
Assay: in vitro
Conditions: human, Caco-2
Where a name gives a salt, the structure may show the parent alone.
measure.name: Papp B→A at 120 min (×10⁻⁶ cm/s)
Express your answer in ×10⁻⁶ cm/s, writing the number without its unit.

>  <molecule>
COc1ccc(-c2c(-c3ccc(C#N)c(F)c3)nc(N3C4CCC3CC(N)C4)n3ccnc23)cc1F (centres unmarked)

>  <assay.result>
7.37

$$$$

Inquiry: Annotate the molecule Cc1noc2cc(-c3sc(C(=O)N4C5CCC4CC(N)C5)nc3-c3ccc(C#N)c(F)c3)c(F)cc12 (centres unmarked) [Example 220, hydrochloride] with its measured Papp B→A at 120 min.
Reply text: 6.21
